target: Xanthine dehydrogenase/oxidase (Homo sapiens); assay: Inhibition of xanthine oxidase (unknown origin) using xanthine as substrate assessed as uric acid formation preincubated for 5 mins followed by substrate addition measured every minute up to 8 mins by spectrophotometric analysis; details: read-out: IC50 (converted)
Sequence (P47989 whole entry): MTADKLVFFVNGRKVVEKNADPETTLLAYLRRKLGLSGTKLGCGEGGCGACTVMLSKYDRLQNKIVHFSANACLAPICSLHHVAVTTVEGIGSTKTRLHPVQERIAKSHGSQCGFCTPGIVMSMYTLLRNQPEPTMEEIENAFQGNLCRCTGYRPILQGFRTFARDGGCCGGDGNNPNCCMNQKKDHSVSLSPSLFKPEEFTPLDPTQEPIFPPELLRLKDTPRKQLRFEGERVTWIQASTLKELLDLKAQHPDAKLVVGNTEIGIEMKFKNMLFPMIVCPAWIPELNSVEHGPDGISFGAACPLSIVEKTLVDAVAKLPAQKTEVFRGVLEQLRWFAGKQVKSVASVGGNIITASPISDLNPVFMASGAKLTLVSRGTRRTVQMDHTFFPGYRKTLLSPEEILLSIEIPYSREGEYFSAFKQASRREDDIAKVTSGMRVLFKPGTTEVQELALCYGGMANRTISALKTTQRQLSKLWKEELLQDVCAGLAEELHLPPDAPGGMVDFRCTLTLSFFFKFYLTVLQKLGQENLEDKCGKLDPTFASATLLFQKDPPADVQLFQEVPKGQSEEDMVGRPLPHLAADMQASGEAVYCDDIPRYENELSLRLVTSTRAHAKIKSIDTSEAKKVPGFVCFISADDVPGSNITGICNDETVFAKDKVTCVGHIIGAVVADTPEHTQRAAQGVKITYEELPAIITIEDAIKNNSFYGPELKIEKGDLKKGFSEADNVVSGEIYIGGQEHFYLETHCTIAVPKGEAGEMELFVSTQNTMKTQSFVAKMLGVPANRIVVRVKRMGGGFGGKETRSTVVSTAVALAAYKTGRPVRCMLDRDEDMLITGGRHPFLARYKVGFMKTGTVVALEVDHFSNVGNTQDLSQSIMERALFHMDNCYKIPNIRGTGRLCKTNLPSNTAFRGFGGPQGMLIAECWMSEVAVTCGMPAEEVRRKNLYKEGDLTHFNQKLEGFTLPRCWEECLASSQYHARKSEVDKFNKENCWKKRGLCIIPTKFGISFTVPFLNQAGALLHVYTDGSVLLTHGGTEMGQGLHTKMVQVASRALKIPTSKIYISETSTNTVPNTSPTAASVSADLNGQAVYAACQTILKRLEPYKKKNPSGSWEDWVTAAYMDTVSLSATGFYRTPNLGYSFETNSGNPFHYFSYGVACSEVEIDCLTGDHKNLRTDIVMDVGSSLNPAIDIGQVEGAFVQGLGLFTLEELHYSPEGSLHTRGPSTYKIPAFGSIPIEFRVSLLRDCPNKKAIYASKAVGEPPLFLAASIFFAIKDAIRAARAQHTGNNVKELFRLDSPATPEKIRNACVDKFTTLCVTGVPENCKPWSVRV
reported.metric: IC50 (µM)

Before answering, review these 6 worked examples.
- O=C(O)Cn1ncc2c(Nc3ccc(NC(=O)c4ccccc4)cc3)ncnc21: 104
- O=C(O)Cn1ncc2c(Nc3ccc(NC(=O)CCl)cc3)ncnc21: 102
- CCOC(=O)Cn1ncc2c(Nc3ccc(NS(=O)(=O)c4ccccc4)cc3)ncnc21: 172
- O=C(O)Cn1ncc2c(Nc3ccc(NS(=O)(=O)c4ccccc4)cc3)ncnc21: 144
- CCOC(=O)Cn1ncc2c(Nc3ccc(NC(=O)c4ccccc4)cc3)ncnc21: 81.9
- CCOC(=O)Cn1ncc2c(Nc3ccc(NC(C)=O)cc3)ncnc21: 109

I: O=C(O)Cn1ncc2c(Nc3ccc(NS(=O)(=O)c4ccc([N+](=O)[O-])cc4)cc3)ncnc21
II: CC(=O)Nc1ccc(Nc2ncnc3c2cnn3CC(=O)O)cc1
Data request: API: POST /compare with I and II ; response names the item with higher IC50. I would appreciate it if you answered with the label of your choice.
Data returned: I
(I: 190 µM, II: 103 µM)
